- test.description: self-splicing fitness, log relative to wild type (ln ratio); higher = more splicing; Tetrahymena group I intron in knt gene, E. coli kanamycin selection, DiMSum; sequences stand for … in CUCUCU…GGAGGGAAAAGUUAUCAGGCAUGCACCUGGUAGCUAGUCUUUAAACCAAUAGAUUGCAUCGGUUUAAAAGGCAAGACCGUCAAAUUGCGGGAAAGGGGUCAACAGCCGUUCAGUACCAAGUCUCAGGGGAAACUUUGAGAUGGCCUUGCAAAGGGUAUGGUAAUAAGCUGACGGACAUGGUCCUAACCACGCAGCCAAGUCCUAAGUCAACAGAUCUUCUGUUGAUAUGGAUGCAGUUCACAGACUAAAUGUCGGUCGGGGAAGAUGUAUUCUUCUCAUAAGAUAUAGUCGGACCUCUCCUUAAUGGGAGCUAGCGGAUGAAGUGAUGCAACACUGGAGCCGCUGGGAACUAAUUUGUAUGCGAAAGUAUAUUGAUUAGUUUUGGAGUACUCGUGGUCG;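 also: selection with 25 µg/mL kanamycin versus none on LB agar overnight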
- measurement.parameters: 30 °C
Outcome label depends on self-splicing fitness (ln) relative to -0.6: at/above gives true (1), below gives false (0).

>  <monomer.sequence>
UAUCAGCAAUAUUACGGCCG

>  <answer.label>
true (1)

$$$$
>  <monomer.sequence>
GGCCAGCAAUAUUACGCGUC

>  <answer.label>
false (0)

$$$$
>  <monomer.sequence>
AGGCAGCAAUAUUACGCCAA

>  <answer.label>
false (0)

$$$$
>  <monomer.sequence>
UAGCAGCAAUAUUACGUUCA

>  <answer.label>
true (1)

$$$$
>  <monomer.sequence>
CCCAAGCAAUAUUACGGUUA

>  <answer.label>
false (0)

$$$$
>  <monomer.sequence>
AGGAAGCAAUAUUACGCAGA

>  <answer.label>
false (0)

$$$$
>  <monomer.sequence>
GAGUAGCAAUAUUACGUCAU

>  <answer.label>
false (0)

$$$$
>  <monomer.sequence>
GUCCAGCAAUAUUACGCAAA

>  <answer.label>
false (0)

$$$$
>  <monomer.sequence>
AGCCAGCAAUAUUACGAUUA

>  <answer.label>
false (0)

$$$$
>  <monomer.sequence>
ACGAAGCAAUAUUACGGCUG

>  <answer.label>
false (0)

$$$$
>  <monomer.sequence>
UAUAAGCAAUAUUACGCGUG

>  <answer.label>
false (0)

$$$$
>  <monomer.sequence>
AUGUAGCAAUAUUACGACUA

>  <answer.label>
true (1)

$$$$
>  <monomer.sequence>
GGGAAGCAAUAUUACGAUUU

>  <answer.label>
true (1)

$$$$
>  <monomer.sequence>
UGCUAGCAAUAUUACGGUCA

>  <answer.label>
true (1)

$$$$
>  <monomer.sequence>
UGAUAGCAAUAUUACGCCCC

>  <answer.label>
false (0)

$$$$
